- Test system: HCC-2998 colon
- RUN_DESCRIPTION: NCI tumour cell line growth inhibition, 48 h

- MOLECULE: "COc1ccc(OC)c(C(Cc2ccnc3ccccc23)Cc2ccnc3ccccc23)c1"
  TGI: "> 10 µM"
- MOLECULE: "CC(C)(S)C(N)C(=O)O (stereo not drawn)"
  TGI: "4340 µM"
- MOLECULE: "CCOC(=O)CO/N=C1/C(c2c(O)[nH]c3ccccc23)=Nc2ccccc21"
  TGI: "> 100 µM"
- MOLECULE: "S=C1SSC2N=CC=CC12 (stereo not drawn)"
  TGI: "61.4 µM"
- MOLECULE: "O=C(CSC1CCc2ccccc21)N/N=C/c1ccccc1O (stereo not drawn)"
  TGI: "35.4 µM"
- MOLECULE: "Cc1[nH]c(/C=C2\\C(=O)Nc3ccccc32)c(C)c1CCC(=O)O"
  TGI: "> 100 µM"
- MOLECULE: "Cn1cc(C2=C(c3cccc(Br)c3)C(=O)NC2=O)c2ccccc21"
  TGI: "> 25 µM"
- MOLECULE: "O=C1NC(=O)/C(=C\\c2ccccc2)C2=C1CCCC2"
  TGI: "14 µM"
- MOLECULE: "N#CC(OC1OC(COC2OC(CO)C(O)C(O)C2O)C(O)C(O)C1O)c1ccccc1 (stereo not drawn)"
  TGI: "> 225 µM"
- MOLECULE: "COc1ccc(-c2nc(-c3cc4c(ccc5ccccc54)oc3=O)cs2)cc1"
  TGI: "> 100 µM"
- MOLECULE: "O=C(c1ccccc1)c1c(-c2ccccc2)n(-c2ccccc2)[nH]c(=O)c1=O"
  TGI: "> 100 µM"
- MOLECULE: "O=C(c1cccs1)N(C(=O)N1CCN(c2ccccc2)CC1)S(=O)(=O)c1ccccc1"
  TGI: "> 100 µM"
- MOLECULE: "COc1cc2c(c(OC)c1OC)-c1ncc3cc4c(cc3c1C2)OCO4"
  TGI: "48.1 µM"
- MOLECULE: "CCOP(=O)(COCCn1ncc(=O)[nH]c1=O)OCC"
  TGI: "> 100 µM"
- MOLECULE: "CCn1c(=O)c2c(=O)c3c4c(oc3oc2c2ccccc21)C(=O)c1ccccc1C4=O"
  TGI: "> 100 µM"
- MOLECULE: "Cc1cccc(C)c1NC(=O)C(=O)C(C(=O)c1ccccc1-c1ccccc1)C1OC(=O)c2ccccc21 (stereo not drawn)"
  TGI: "29.7 µM"
- MOLECULE: "O=P1(c2ccccc2)CCCCC1"
  TGI: "> 100 µM"
- MOLECULE: "CNS(=O)(=O)NNS(=O)(=O)c1ccc(Br)cc1"
  TGI: "> 100 µM"
- MOLECULE: "CCCCCC(=O)CCCCCCCC(O)CC(=O)OCC (stereo not drawn)"
  TGI: "> 100 µM"
- MOLECULE: "Cc1cc(S(=O)(=O)O)c(NC(=O)C(=O)Cc2cc(=O)oc3cc(O)ccc23)cc1Cl"
  TGI: "> 100 µM"
- MOLECULE: "O=C(/N=C/c1c(O)c2ccccc2oc1=O)Oc1ccccc1"
  TGI: "> 100 µM"
- MOLECULE: "S=c1[nH]c(=S)c2nnn(-c3ccccc3)c2[nH]1"
  TGI: "> 100 µM"
- MOLECULE: "OCc1ccn2c1[C@@H](O)CC2"
  TGI: "> 100 µM"
- MOLECULE: "O=c1oc2ccccc2cc1-c1cn2ccccc2n1"
  TGI: "39.4 µM"
- MOLECULE: "c1ccc([P+](CC[P+](c2ccccc2)(c2ccccc2)c2ccccc2)(c2ccccc2)c2ccccc2)cc1"
  TGI: "44.5 µM"
- MOLECULE: "Cc1c(/C=N/NC(=O)c2ccc(Cl)cc2)c(=O)n(-c2ccccc2)n1C"
  TGI: "> 100 µM"
- MOLECULE: "N#CC(C(=O)C(=O)Nc1ccc(Cl)cc1)c1ccccc1 (stereo not drawn)"
  TGI: "> 100 µM"
- MOLECULE: "N#Cc1[nH]c(=S)[nH]c1N"
  TGI: "> 100 µM"
- MOLECULE: "CN[C@@H](C)[C@@H](NC)c1ccccc1"
  TGI: "> 100 µM"
- MOLECULE: "CC(C)CC(NC(=O)C(CI)Cc1ccccc1)C(=O)Nc1ccccc1 (stereo not drawn)"
  TGI: "> 100 µM"
- MOLECULE: "CC(CO)CCNc1ncnc2c1ncn2CCC(=O)OC(C)(C)C (stereo not drawn)"
  TGI: "> 100 µM"
- MOLECULE: "CSc1ccc2c(c1)C(=O)c1c-2n(CCCBr)c(=O)c2cc([N+](=O)[O-])ccc12"
  TGI: "> 100 µM"
- MOLECULE: "CC(C)N(C(=O)C12C3C4C1(I)C1C2C3(I)C41C(=O)N(C(C)C)C(C)C)C(C)C (stereo not drawn)"
  TGI: "> 100 µM"
- MOLECULE: "Cc1cn(C2CC(O)C(CO[Si](C)(C)C(C)(C)C)OC2OC(C)C)c(=O)[nH]c1=O (stereo not drawn)"
  TGI: "62.7 µM"
- MOLECULE: "CCOC(=O)/C=C/[C@H](O[Si](CC)(CC)CC)C(C)(C)C"
  TGI: "> 100 µM"
- MOLECULE: "O=C(O/C=C\\OC1CCCC1(c1ccccc1)c1ccccc1)c1ccccc1 (stereo not drawn)"
  TGI: "> 49.4 µM"
- MOLECULE: "COc1cc(N(CCC#N)CCC#N)ccc1/C(N=Nc1ccccc1C)=N\\NC(=O)c1ccc(C)cc1"
  TGI: "> 100 µM"
- MOLECULE: "CC(O)CCCCC(O)CCC[C@H](O)[C@H]1CCC([C@H]2CCC([C@@H](O)CCCCCCCCCCCCC3=C[C@H](C)OC3=O)O2)O1 (stereo partly drawn)"
  TGI: "23.9 µM"

###

In this section we review reported TGI values for a set of compounds.
- Tested on: HCC-2998 colon
- RUN_DESCRIPTION: NCI tumour cell line growth inhibition, 48 h

- COMPOUND: "CC(C)(C)OC(=O)NC(Cc1ccc(OC(C)(C)C)cc1)C(=O)N[C@H]1CCC[C@H]1C(=O)NC(Cc1ccccc1)C(=O)N1CCCC1C(N)=O (stereo not given in full)"
  MEASUREMENT_UNIT: "µM"
  BOUND_OPERATOR: ">"
  TGI: 100
- COMPOUND: "CCOC(=O)c1c(NC(=O)c2cccc(C(F)(F)F)c2)sc2c(CN(C)C)c(O)ccc12"
  MEASUREMENT_UNIT: "µM"
  BOUND_OPERATOR: "="
  TGI: 3.77
- COMPOUND: "CC(=O)N(CCc1ccccc1)C(C#N)c1ccccc1 (stereo not given)"
  MEASUREMENT_UNIT: "µM"
  BOUND_OPERATOR: ">"
  TGI: 100
- COMPOUND: "Cc1cc(C)c(C[C@H]2COC(=O)[C@]2(O)Cc2c(C)cc(C)cc2C)c(C)c1"
  MEASUREMENT_UNIT: "µM"
  BOUND_OPERATOR: "="
  TGI: 30.7
- COMPOUND: "COCC1(CO)C(=O)C2CCN1CC2 (stereo not given)"
  MEASUREMENT_UNIT: "µM"
  BOUND_OPERATOR: ">"
  TGI: 100

###

- Tested on: HCT-15 colon
- RUN_DESCRIPTION: NCI tumour cell line growth inhibition, 48 h
Parameter TGI: see the listing below.

- MOLECULE: "C=C1C(=O)O[C@H]2[C@H]1CC/C(COC(=O)/C=C\\C(=O)NCc1ccc(Cn3c(=O)sn(CCCC)c3=O)cc1)=C\\CC[C@@]1(C)O[C@@H]21"
  TGI: "0.467 µM"
- MOLECULE: "NC(=O)c1cc(S(=O)(=O)Nc2nnc(-c3ccccc3)c(-c3ccccc3)n2)c(SCc2ccccc2)cc1Cl"
  TGI: "> 100 µM"
- MOLECULE: "O[C@H](c1cc(C(F)(F)F)nc2c(C(F)(F)F)cccc12)[C@@H]1CCCCN1"
  TGI: "27 µM"
- MOLECULE: "N#CC(C(=O)C(=O)Nc1ccc(Cl)cc1)c1ccccc1 (centres undefined)"
  TGI: "> 100 µM"
- MOLECULE: "O=C(Nc1ccc(F)cc1)c1cc(S(=O)(=O)Nc2nc3ccccc3o2)c(SCc2ccccc2)cc1Cl"
  TGI: "30.1 µM"
- MOLECULE: "Cc1cc2c(cc1C)C(=O)C1(C2)Cc2c(C)ccc(C)c2C1=O (centres undefined)"
  TGI: "> 100 µM"
- MOLECULE: "c1ccc2c(c1)c1c(c3ccccc32)CN2CCCC2C1 (centres undefined)"
  TGI: "> 70.4 µM"
- MOLECULE: "Nc1nc(NCC2(CO)CC2)cc(=O)[nH]1"
  TGI: "> 100 µM"
- MOLECULE: "C#COc1cccc(Nc2c(C#N)cnc3ncc(NC(=O)CCl)cc23)c1"
  TGI: "> 62.5 µM"
